Target: MMP-1 (Homo sapiens, UniProt P03956)
Sequence (P03956 100-469): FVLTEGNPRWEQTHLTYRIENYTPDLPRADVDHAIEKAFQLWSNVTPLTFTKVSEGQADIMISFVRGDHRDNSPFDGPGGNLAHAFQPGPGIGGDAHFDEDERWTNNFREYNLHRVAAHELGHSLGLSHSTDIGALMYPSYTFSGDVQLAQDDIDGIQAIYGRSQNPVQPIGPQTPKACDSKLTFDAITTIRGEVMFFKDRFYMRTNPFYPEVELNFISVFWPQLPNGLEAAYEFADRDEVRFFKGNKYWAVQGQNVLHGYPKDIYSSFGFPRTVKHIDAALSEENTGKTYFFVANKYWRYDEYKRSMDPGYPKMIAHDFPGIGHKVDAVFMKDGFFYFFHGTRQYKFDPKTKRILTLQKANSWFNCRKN
Assay: MMP-1 inhibitory action (Type I collagen Activity Measurement kit, FITC-labeled collagen type I)
Assay type: biochemical
Conditions: MMP-1 inhibitory action, FITC-labeled collagen type I, 37° C. for 3 hr; read-out: IC50 MMP1 (Experimental Example 2)
pIC50: −log10 of the molar value.
measured property: pIC50

A selection of reference data follows.
| compound | pIC50 |
| --- | --- |
| CCc1cc(-c2ccc(S(=O)(=O)N[C@@]3(C(=O)O)C[C@@H]3c3ccccc3)s2)no1 | > 6.00 |
| CN1CCN(Cc2cccc(C3CC3(NS(=O)(=O)c3ccc(-c4ccc(Cl)cc4)s3)C(=O)O)c2)CC1 (stereo not drawn) | ≤ 5.00 |
| O=C(Nc1cccc(C2CC2(NS(=O)(=O)c2ccc(-c3ccc(Cl)cc3)cc2)C(=O)O)c1)c1cccnc1 (stereo not drawn) | ≤ 6.00 |
| O=C(O)C1(NS(=O)(=O)c2ccc(-c3ccc(Cl)cc3)cc2)CC1c1cccc(NCc2cccnc2)c1 (stereo not drawn) | ≤ 6.00 |
| O=C(O)C1(NS(=O)(=O)c2ccc(-c3ccc(Cl)cc3)s2)CC1c1cccc([N+](=O)[O-])c1 (stereo not drawn) | ≤ 6.00 |
| Cc1ncc(-c2ccc(S(=O)(=O)NC3(C(=O)O)CC3c3ccccc3)s2)o1 (stereo not drawn) | ≤ 5.00 |
| COCCN(C)Cc1ccccc1C1CC1(NS(=O)(=O)c1ccc(-c2ccc(Cl)cc2)s1)C(=O)O (stereo not drawn) | ≤ 5.00 |
| O=C(O)C1(NS(=O)(=O)c2ccc(-c3ccc(Cl)cc3)cc2)CC1c1cccc(OCCn2ccnc2)c1 (stereo not drawn) | ≤ 6.00 |
| O=C(O)[C@]1(NS(=O)(=O)/C=C/c2ccc(C(F)(F)F)cc2)C[C@@H]1c1ccccc1 | ≤ 5.00 |
| O=C(Cc1cccc(C2CC2(NS(=O)(=O)c2ccc(-c3cc(C(F)(F)F)on3)s2)C(=O)O)c1)N[C@H]1CC[C@H](O)CC1 (stereo partly drawn) | ≤ 6.00 |

Reported pIC50 for O=C(O)c1ccc(S(=O)(=O)NC2(C(=O)O)CC2c2ccccc2)s1 (stereo not drawn) was ≤ 5.00

Reported pIC50 for O=C(O)[C@@]1(NS(=O)(=O)c2ccc(-c3ccc(Cl)cc3)s2)C[C@H]1c1ccccc1Br was ≤ 5.00

Reported pIC50 for CC(=O)c1ccc(S(=O)(=O)NC2(C(=O)O)CC2c2ccccc2)s1 (stereo not drawn) was ≤ 5.00

Reported pIC50 for O=C1Nc2ccccc2C2CC12NS(=O)(=O)c1ccc(-c2ccc(Cl)cc2)s1 (stereo not drawn) was ≤ 5.00

Reported pIC50 for O=C(O)C1(NS(=O)(=O)N2CCn3c(nnc3-c3ccccc3)C2)CC1c1ccccc1 (stereo not drawn) was ≤ 5.00
